- Tested On: partially purified rat brain farnesyl protein transferase (FPT) (Rattus norvegicus, UniProt Q02293+Q04631)
- Construct: partially purified rat brain farnesyl protein transferase (FPT)
- Assay: In vitro enzyme assay: inhibition of Ras-CVLS farnesylation by farnesyl protein transferase
Exercise: for every item that follows, state its recorded pIC50.
Answers are plain numbers, as −log10 of the molar value.

# annotated cases, reported pIC50 shown
| Compound | Number |
| --- | --- |
| Cc1cc(Br)cc2c1C(N1CCN(C(=O)Cc3cc[n+]([O-])cc3)CC1)c1ncc(Br)cc1CC2 (racemic) | 8.00 |
| Cc1cc(Br)c2c(c1)CCc1cc(Br)cnc1C2N1CCN(C(=O)Cc2cc[n+]([O-])cc2)CC1 (racemic) | 8.32 |
| Cc1ccc2c(c1)CCc1cc(Br)cnc1C2N1CCN(C(=O)Cc2cc[n+]([O-])cc2)CC1 (racemic) | 7.19 |

I have 2 compounds here; please give me pIC50 for each one.
1. Cc1cc(Br)c2c(c1)CCc1cc(Br)cnc1C2C1CCN(C(=O)Cc2cc[n+]([O-])cc2)CC1 (single isomer, unassigned; (+)) [Example 33]
2. COc1cc(C)cc2c1C(N1CCN(C(=O)Cc3cc[n+]([O-])cc3)CC1)c1ncc(Br)cc1CC2 (racemic) [Example 10]

### Response
1. 8.92
2. 7.80

I have 2 compounds here; please give me pIC50 for each one.
1. COc1cc(C)cc2c1C(=C1CCN(C(=O)Cc3cc[n+]([O-])cc3)CC1)c1ncc(C)cc1CC2
2. CCc1cnc2c(c1)CCc1cc(C)cc(OC)c1C2C1CCN(C(=O)Cc2cc[n+]([O-])cc2)CC1 (centres unmarked)

### Response
7.22
7.13

I have 2 compounds here; please give me pIC50 for each one.
1. COc1cc(C)cc2c1C(C1CCN(C(=O)Cc3cc[n+]([O-])cc3)CC1)c1ncc(Br)cc1CC2 (racemic) [Example 3]
2. COc1cc(C)cc2c1C(N1CCN(C(=O)Cc3cc[n+]([O-])cc3)CC1)c1ncc(Br)cc1CC2 (single isomer, unassigned; (-)) [Example 19]

### Response
1: 8.49; 2: 8.38

I have 3 compounds here; please give me pIC50 for each one.
1. Cc1cc(C)c2c(c1)CCc1cc(Br)cnc1C2N1CCN(C(=O)Cc2cc[n+]([O-])cc2)CC1 (racemic)
2. C=Cc1cnc2c(c1)CCc1cc(C)cc(OC)c1C2C1CCN(C(=O)Cc2cc[n+]([O-])cc2)CC1 (centres unmarked)
3. C=Cc1cnc2c(c1)CCc1cc(C)cc(OC)c1C2C1CCN(S(C)(=O)=O)CC1 (centres unmarked)

### Response
[7.37, 7.23, 6.88]

I have 2 compounds here; please give me pIC50 for each one.
1. Cc1cc(Br)c2c(c1)CCc1cc(Br)cnc1C2(O)C1CCN(C(=O)Cc2cc[n+]([O-])cc2)CC1 (single isomer, unassigned; (+)) [Example 35]
2. COc1cc(C)cc2c1C(C1CCN(C(=O)Cc3cc[n+]([O-])cc3)CC1)c1ncc(Br)cc1CC2 (single isomer, unassigned; (+)) [Example 24]

### Response
1. 7.97
2. 8.44

* * *

- Tested On: partially purified rat brain farnesyl protein transferase (FPT) (Rattus norvegicus, UniProt Q02293+Q04631)
- Construct: partially purified rat brain farnesyl protein transferase (FPT)
- Assay: In vitro enzyme assay: inhibition of Ras-CVLS farnesylation by farnesyl protein transferase
Readout Type: pIC50
Numbers only, as −log10 of the molar value.

# annotated cases, reported pIC50 shown
| Compound | Readout Type | Number |
| --- | --- | --- |
| COc1cc(C)cc2c1C(C1CCN(C(=O)Cc3cc[n+]([O-])cc3)CC1)c1ncccc1CC2 (racemic) | pIC50 | 6.85 |
| COc1cc2c(c(OC)c1)C(N1CCN(C(=O)Cc3cc[n+]([O-])cc3)CC1)c1ncc(Br)cc1CC2 (stereo not shown) | pIC50 | 7.17 |
| Cc1cc(Br)c2c(c1)CCc1cc(Br)cnc1C2(O)C1CCN(C(=O)Cc2cc[n+]([O-])cc2)CC1 (single isomer, unassigned; (-)) [Example 36] | pIC50 | 8.27 |
| Cc1cc(O)c2c(c1)CCc1cc(Br)cnc1C2=C1CCN(C(=O)Cc2cc[n+]([O-])cc2)CC1 | pIC50 | 7.35 |
| COc1cc(C)cc2c1C(C1CCN(C(=O)Cc3cc[n+]([O-])cc3)CC1)c1ncc(C)cc1CC2 (stereo not shown) | pIC50 | 7.47 |

I have 2 compounds here; please give me pIC50 for each one.
1. Cc1cc(O)c2c(c1)CCc1cc(Br)cnc1C2C1CCN(C(=O)Cc2cc[n+]([O-])cc2)CC1 (racemic)
2. Cc1cc(Br)c2c(c1)CCc1cc(Br)cnc1C2=C1CCN(C(=O)Cc2cc[n+]([O-])cc2)CC1

### Response
1. 6.92
2. 8.27

* * *

- Tested On: partially purified rat brain farnesyl protein transferase (FPT) (Rattus norvegicus, UniProt Q02293+Q04631)
- Construct: partially purified rat brain farnesyl protein transferase (FPT)
- Assay: In vitro enzyme assay: inhibition of Ras-CVLS farnesylation by farnesyl protein transferase
Exercise: for every item that follows, state its recorded IC50.

# annotated cases, reported IC50 shown
| Molecule | Result |
| --- | --- |
| Cc1cc(Br)c2c(c1)CCc1cc(Br)cnc1C2C1CCN(C(=O)Cc2cc[n+]([O-])cc2)CC1 (single isomer, unassigned; (-)) [Example 34] | > 0.016 µM |
| COc1cc(C)c(Cl)c2c1C(=C1CCN(C(=O)Cc3cc[n+]([O-])cc3)CC1)c1ncccc1CC2 | > 0.2 µM |

Please turn your attention to the following entry.
### Prompt Would you kindly share the measured IC50 for COc1cc(C)cc2c1C(C1CCN(C(=O)Cc3cc[n+]([O-])cc3)CC1)c1ncc(C(C)(C)O)cc1CC2 (racemic) ?
### Response > 0.2 µM

Origin of measurements: patent US6440989B2
